# target_entity: CYP3A4 (Homo sapiens (Human))
# measurement_protocol: Time-dependent inhibition of site of metabolism of midazolam in human liver microsome CYP3A4
# Type: in vitro ADME
# condition_description: midazolam substrate, 30 min pre-incubation with NADPH
pIC50: −log10 of the molar value.
test_readout: pIC50

A: C[C@@H]1Cc2cc3c(cc2[C@@H](c2ccc(N[C@H]4CCN(CCCF)C4)cn2)N1CC(F)(F)CO)OCO3
B: [2H]C1([2H])Oc2cc3c(cc2O1)[C@@H](c1ccc(N[C@H]2CCN(CCCF)C2)cn1)N(CC(F)(F)CO)[C@H](C)C3
Of the two listed items, which has the higher pIC50? First: A Second: B Refer to your chosen entry by its label in the reply. A

---

# target_entity: CYP3A4 (Homo sapiens (Human))
# measurement_protocol: Time-dependent inhibition of site of metabolism of testosterone in human liver microsome CYP3A4
# Assay type: in vitro ADME
# condition_description: human, human liver microsomes, probe testosterone (75 µM); testosterone substrate
test_readout: IC50 shift at 30 min

A: C[C@@H]1Cc2cc3c(cc2[C@@H](c2ccc(N[C@H]4CCN(CCCF)C4)cn2)N1CC(F)(F)CO)OCO3
B: [2H]C1([2H])Oc2cc3c(cc2O1)[C@@H](c1ccc(N[C@H]2CCN(CCCF)C2)cn1)N(CC(F)(F)CO)[C@H](C)C3
// pick larger IC50 shift at 30 min from pair: A vs B Give the chosen item's label as your response. A
(A: 1, B: 0.5)

---

# target_entity: CYP3A4 (Homo sapiens (Human), UniProt P08684)
# Sequence (P08684 whole entry): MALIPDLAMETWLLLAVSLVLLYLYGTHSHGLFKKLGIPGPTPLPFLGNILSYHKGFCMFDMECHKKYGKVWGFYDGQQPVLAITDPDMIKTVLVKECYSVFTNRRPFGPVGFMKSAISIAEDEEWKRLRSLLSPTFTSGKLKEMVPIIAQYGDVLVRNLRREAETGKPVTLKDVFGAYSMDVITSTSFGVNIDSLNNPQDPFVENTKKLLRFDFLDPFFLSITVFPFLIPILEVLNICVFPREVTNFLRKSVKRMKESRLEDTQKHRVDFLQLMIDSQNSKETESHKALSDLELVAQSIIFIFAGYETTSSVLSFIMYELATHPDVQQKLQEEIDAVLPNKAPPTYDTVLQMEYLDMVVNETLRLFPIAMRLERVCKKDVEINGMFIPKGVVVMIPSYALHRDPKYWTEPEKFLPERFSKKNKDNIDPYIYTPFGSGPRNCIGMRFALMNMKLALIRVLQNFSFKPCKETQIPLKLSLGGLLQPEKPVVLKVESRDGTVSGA
# measurement_protocol: Time-dependent inhibition of site of metabolism of midazolam in human liver microsome CYP3A4
# Format: in vitro ADME
# condition_description: human, human liver microsomes, probe midazolam (3 µM); midazolam substrate
test_readout: IC50 shift at 30 min

> print(dat)
                                smiles.text  measured.result
1  C[C@@H]1Cc2cc3c(cc2[C@@H](c2ccc(N[C@H]4CCN(CCCF)C4)cn2)N1CC(F)(F)CO)OCO3                1
2  [2H]C1([2H])Oc2cc3c(cc2O1)[C@@H](c1ccc(N[C@H]2CCN(CCCF)C2)cn1)N(CC(F)(F)CO)[C@H](C)C3              0.9

---

# target_entity: ERα (Homo sapiens (Human))
# Sequence (P03372 whole entry): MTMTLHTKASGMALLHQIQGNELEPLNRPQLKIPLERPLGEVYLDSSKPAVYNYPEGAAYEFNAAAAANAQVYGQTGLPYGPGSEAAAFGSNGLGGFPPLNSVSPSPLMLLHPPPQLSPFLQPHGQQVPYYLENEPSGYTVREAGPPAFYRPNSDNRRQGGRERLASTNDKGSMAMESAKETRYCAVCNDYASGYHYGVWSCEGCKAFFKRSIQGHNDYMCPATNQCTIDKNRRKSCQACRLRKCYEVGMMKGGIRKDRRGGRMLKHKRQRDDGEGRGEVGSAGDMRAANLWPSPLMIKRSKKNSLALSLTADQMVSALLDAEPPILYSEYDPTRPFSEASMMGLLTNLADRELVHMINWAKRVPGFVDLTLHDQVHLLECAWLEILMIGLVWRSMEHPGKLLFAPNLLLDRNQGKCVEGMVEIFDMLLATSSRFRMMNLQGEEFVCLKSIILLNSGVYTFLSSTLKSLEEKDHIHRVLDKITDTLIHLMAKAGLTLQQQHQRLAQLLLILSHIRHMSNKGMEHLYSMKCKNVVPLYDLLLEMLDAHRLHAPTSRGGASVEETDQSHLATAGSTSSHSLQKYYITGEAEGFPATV
# measurement_protocol: Degradation of ERα in MCF-7 cells (ELISA)
# Assay type: cell-based
# condition_description: MCF7; read-out: Emax degradation (%)
test_readout: Dmax at 3 µM (%)

> print(dat)
                                   molecule  test.readout  measured.result
1  [2H]C1([2H])Oc2cc3c(cc2O1)[C@@H](c1ccc(N[C@H]2CCN(CCCF)C2)cc1)N(CC(F)(F)CO)[C@H](C)C3 [Example 19]  Dmax at 3 µM              100
2  C[C@@H]1Cc2cc3c(cc2[C@@H](c2ncc(N[C@H]4CCN(CCCF)C4)cc2F)N1CC(F)(F)F)OCO3 [Example 9]  Dmax at 3 µM              107
3  C[C@@H]1Cc2cc3c(cc2[C@@H](c2ccc(N[C@H]4CCN(CCCF)C4)cc2)N1CC(F)(F)F)OCO3 [Example 1]  Dmax at 3 µM               94
4  C[C@@H]1Cc2cc3c(cc2[C@@H](c2ccc(N[C@H]4CCN(CCCF)C4)cn2)N1CC(F)(F)CO)OCO3 [Example 4]  Dmax at 3 µM              115
5  C[C@@H]1Cc2cc3c(cc2[C@@H](c2ccc(N[C@H]4CCN(CCCF)C4)cc2)N1CC(F)(F)CO)OCO3 [Example 3]  Dmax at 3 µM              129
6  C[C@@H]1Cc2cc3c(cc2[C@@H](c2ccc(NC4CN(CCCF)C4)cn2)N1CC(F)(F)CO)OCO3 [Example 14]  Dmax at 3 µM               92
7  C[C@@H]1Cc2cc3c(cc2[C@@H](c2ccc(NC4CN(CCCF)C4)cn2)N1CC(F)(F)F)OCO3 [Example 17]  Dmax at 3 µM              104

---

# target_entity: CYP3A4 (Homo sapiens (Human), UniProt P08684)
# measurement_protocol: Inhibition of site of metabolism of testosterone in human liver microsome CYP3A4
# Type: in vitro ADME
# condition_description: testosterone substrate
test_readout: IC50 (µM)

These solved cases illustrate the format of a correct answer.
> print(dat)
                                   compound  uom  measured.result
1  [2H]C1([2H])Oc2cc3c(cc2O1)[C@@H](c1ccc(N[C@H]2CCN(CCCF)C2)cn1)N(CC(F)(F)CO)[C@H](C)C3 [Example 12]   µM             23.8
2  C[C@@H]1Cc2cc3c(cc2[C@@H](c2ccc(N[C@H]4CCN(CCCF)C4)cc2)N1CC(F)(F)CO)OCO3 [Example 3]   µM             14.6

I: C[C@@H]1Cc2cc3c(cc2[C@@H](c2ccc(N[C@H]4CCN(CCCF)C4)cc2)N1CC(F)(F)F)OCO3 [Example 1]
II: C[C@@H]1Cc2cc3c(cc2[C@@H](c2ccc(N[C@H]4CCN(CCCF)C4)cn2)N1CC(F)(F)CO)OCO3 [Example 4]
Lowest IC50? choose I or II Write down the label of the entry you select. I

---

# target_entity: UniProtKB P08684
# measurement_protocol: Time-dependent inhibition of site of metabolism of testosterone in human liver microsome CYP3A4
# Assay type: in vitro ADME
# condition_description: testosterone substrate, pre-incubation without NADPH
pIC50: −log10 of the molar value.
test_readout: pIC50

A: [2H]C1([2H])Oc2cc3c(cc2O1)[C@@H](c1ccc(N[C@H]2CCN(CCCF)C2)cn1)N(CC(F)(F)CO)[C@H](C)C3
B: C[C@@H]1Cc2cc3c(cc2[C@@H](c2ccc(N[C@H]4CCN(CCCF)C4)cn2)N1CC(F)(F)CO)OCO3
Of A and B , which carries the smaller reported pIC50 figure? # answer = label of selected item A
(A: 4.60, B: 5.60)

---

# target_entity: CYP3A4 (Homo sapiens (Human), UniProt P08684)
# measurement_protocol: Time-dependent inhibition of site of metabolism of testosterone in human liver microsome CYP3A4
# Type: in vitro ADME
# condition_description: testosterone substrate, 30 min pre-incubation with NADPH
pIC50: −log10 of the molar value.
test_readout: pIC50

A: [2H]C1([2H])Oc2cc3c(cc2O1)[C@@H](c1ccc(N[C@H]2CCN(CCCF)C2)cn1)N(CC(F)(F)CO)[C@H](C)C3
B: C[C@@H]1Cc2cc3c(cc2[C@@H](c2ccc(N[C@H]4CCN(CCCF)C4)cn2)N1CC(F)(F)CO)OCO3
// compare measured pIC50, left A , right B , return larger Field: selected label. Fill in the label of the entry you choose. B
(B: 5.62, A: 4.94)

---

# target_entity: CYP3A4 (Homo sapiens (Human))
# measurement_protocol: Inhibition of site of metabolism of midazolam in human liver microsome CYP3A4
# Format: in vitro ADME
# condition_description: midazolam substrate
test_readout: IC50 (µM)

> print(dat)
                                smiles.text  measured.result
1  [2H]C1([2H])Oc2cc3c(cc2O1)[C@@H](c1ccc(N[C@H]2CCN(CCCF)C2)cn1)N(CC(F)(F)CO)[C@H](C)C3             8.18

A: C[C@@H]1Cc2cc3c(cc2[C@@H](c2ccc(N[C@H]4CCN(CCCF)C4)cc2)N1CC(F)(F)CO)OCO3
B: C[C@@H]1Cc2cc3c(cc2[C@@H](c2ccc(N[C@H]4CCN(CCCF)C4)cc2)N1CC(F)(F)F)OCO3
Of A and B , whose reported IC50 is the larger number? Answer with the label corresponding to your selection. B

---

# target_entity: CYP3A4 (Homo sapiens (Human), UniProt P08684)
# measurement_protocol: Time-dependent inhibition of site of metabolism of midazolam in human liver microsome CYP3A4
# Type: in vitro ADME
# condition_description: midazolam substrate, pre-incubation without NADPH
test_readout: IC50 (µM)

A: C[C@@H]1Cc2cc3c(cc2[C@@H](c2ccc(N[C@H]4CCN(CCCF)C4)cn2)N1CC(F)(F)CO)OCO3 [Example 4]
B: [2H]C1([2H])Oc2cc3c(cc2O1)[C@@H](c1ccc(N[C@H]2CCN(CCCF)C2)cn1)N(CC(F)(F)CO)[C@H](C)C3 [Example 12]
API: POST /compare with A and B ; response names the item with higher IC50. Provide the label of your selected option as the answer. B
(B: 10.2 µM, A: 2.47 µM)
